Source of measurements: PubChem BioAssay AID2060625

Test system: 186277-243-T-J2-PDC spheroids with HUVEC/MSC, viability
Protocol Text: Anticancer human tumor 186277-243-T-J2-PDC patient-derived colon adenocarcinoma cell line growth inhibition [CLK]
Condition Description: second compound 0.1 µM; first compound 0.0316 µM; hits give low values
Text: A high-throughput screen of multi-cell type tumor spheroids was designed to identify active combinations of […] and targeted small molecules. Complex spheroids include a stromal component modeled by human endothelial cells (HUVEC) and fibroblasts modeled by human mesenchymal stem cells (MSCs). […] Compounds. […] If the clinical Cmax for an agent had not been determined, the highest concentration tested was 10 microM. […]
Labelling: viability, T/C reported below 60% becomes class 1; at or above becomes class 0.

## Task Hello, I'm reviewing records and need to know if viability, T/C of CCCS(=O)(=O)Nc1ccc(F)c(C(=O)c2c[nH]c3ncc(-c4ccc(Cl)cc4)cc23)c1F + CN1CCN(c2cc(C(=O)Nc3cc4cc(-c5cnn(C)c5)ccc4cn3)ccn2)CC1 is below 60%. Could you check?
## Result class 0

## Task Hello, I'm reviewing records and need to know if viability, T/C of C=C(F)C(=O)N1CCN(c2nc(OCC3CCCN3C)nc3c2CCN(c2cccc4cccc(Cl)c24)C3)CC1CC#N (stereo not given) + CNC(=O)c1ccc(Nc2nc(OC3CCCC3)c3c(-c4ccc5nc(C)oc5c4)c[nH]c3n2)c(OC)c1 is below 60%. Could you check?
## Result class 0

## Task Given the entry O=c1[nH]cc(F)c(=O)[nH]1 + CNC(=O)c1ccc(Nc2nc(OC3CCCC3)c3c(-c4ccc5nc(C)oc5c4)c[nH]c3n2)c(OC)c1 , would its reported viability, T/C be below 60%?
## Result class 0

## Task Is 60% strictly greater than the molecule's reported viability, T/C? molecule: Nc1ccn(C2OC(CO)C(O)C2(F)F)c(=O)n1 (stereo not given) + CN1CCN(c2cc(C(=O)Nc3cc4cc(-c5cnn(C)c5)ccc4cn3)ccn2)CC1
## Result class 1

## Task Identify whether the molecule COC1C=CCC(C)C(C)S(=O)(=O)NC(=O)c2ccc3c(c2)N(CC2CCC21)CC1(CCCc2cc(Cl)ccc21)CO3 (stereo not given) + CNC(=O)c1ccc(Nc2nc(OC3CCCC3)c3c(-c4ccc5nc(C)oc5c4)c[nH]c3n2)c(OC)c1 records viability, T/C below 60%.
## Result class 0

---

Test system: 186277-243-T-J2-PDC spheroids with HUVEC/MSC, viability
Protocol Text: Anticancer human tumor 186277-243-T-J2-PDC cell line growth inhibition [CLK];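 note: compound exposure lasted seven days before readout; 100% = DMSO vehicle control wells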
Condition Description: second compound 3.16 µM; first compound 0.1 µM; hits give low values
From the text: A high-throughput screen of multi-cell type tumor spheroids was designed to identify active combinations of […] and targeted small molecules. Complex spheroids include a stromal component modeled by human endothelial cells (HUVEC) and fibroblasts modeled by human mesenchymal stem cells (MSCs). […] Compounds. […] If the clinical Cmax for an agent had not been determined, the highest concentration tested was 10 microM. […]
In plain terms, low viability, T/C, meaning strictly below 20%, gives t, and everything else gives f.

## Task hey, is viability, T/C for CC1(C)CCC(CN2CCN(c3ccc(C(=O)NS(=O)(=O)c4ccc(NCC5CCOCC5)c([N+](=O)[O-])c4)c(Oc4cnc5[nH]ccc5c4)c3)CC2)=C(c2ccc(Cl)cc2)C1 + CNC(=O)c1ccc(Nc2nc(OC3CCCC3)c3c(-c4ccc5nc(C)oc5c4)c[nH]c3n2)c(OC)c1 lower than 20% or not?
## Result f

## Task Dear colleague, could you confirm whether viability, T/C of CC1COCCN1c1cc(C2(S(C)(=N)=O)CC2)nc(-c2ccnc3[nH]ccc23)n1 (stereo not given) + CN1CCN(c2cc(C(=O)Nc3cc4cc(-c5cnn(C)c5)ccc4cn3)ccn2)CC1 falls below 20%? Thanks.
## Result t

## Task Consider COC1C=CCC(C)C(C)S(=O)(=O)NC(=O)c2ccc3c(c2)N(CC2CCC21)CC1(CCCc2cc(Cl)ccc21)CO3 (stereo not given) + CN1CCN(c2cc(C(=O)Nc3cc4cc(-c5cnn(C)c5)ccc4cn3)ccn2)CC1 . Does its viability, T/C lie strictly below 20%?
## Result t

## Task Just wondering, is viability, T/C of CC(Nc1ccc2c(c1)OCCn1cc(N3C(=O)OCC3C(F)F)nc1-2)C(N)=O (stereo not given) + CNC(=O)c1ccc(Nc2nc(OC3CCCC3)c3c(-c4ccc5nc(C)oc5c4)c[nH]c3n2)c(OC)c1 below 20%?
## Result t

## Task is_below(viability, T/C, 20%) for O=c1[nH]cc(F)c(=O)[nH]1 + CNC(=O)c1ccc(Nc2nc(OC3CCCC3)c3c(-c4ccc5nc(C)oc5c4)c[nH]c3n2)c(OC)c1 ?
## Result f
